Below, each entry is listed with its recorded pKi.
biological target: Recombinant human hepsin (4776-SE-010, R&D Systems), activated (human, UniProt P05981); test: fluorogenic inhibition assay
Non-standard residues stand in square brackets, D forms with d. *: point of attachment. kbt‑6‑COOH = ketobenzothiazole-6-COOH, O=C(O)c1ccc2nc(*)sc2c1; kbt = C-terminal ketobenzothiazole, c1ccc2sc(*)nc2c1; Fmoc = O=C(OCC1c2ccccc2-c2ccccc21)*
// pKi here means minus log10 of the molar concentration (mol/L)

Ask: Can you share its pKi? I mean this binder: H-[dW]-Leu-Arg-kbt [H-dWLR-kbt]
Reply: 8.45

Ask: Can you share its pKi? I mean this binder: Ac-SKLR-{kbt‑6‑COOH} (SMILES CC(=O)N[C@@H](CO)C(=O)N[C@@H](CCCCN)C(=O)N[C@@H](CC(C)C)C(=O)N[C@@H](CCCNC(=N)N)C(=O)c1nc2ccc(C(=O)O)cc2s1) [Ac-SKLR(SEQ ID NO: 10)-Kbt-COOH]
Reply: 9.76

Ask: Can you share its pKi? I mean this binder: Fmoc-Gln-Arg-kbt [Fmoc-QR-kbt]
Reply: 6.77

Ask: Can you share its pKi? I mean this binder: H-WRLR-kbt (SMILES CC(C)C[C@H](NC(=O)[C@H](CCCNC(=N)N)NC(=O)[C@@H](N)Cc1c[nH]c2ccccc12)C(=O)N[C@@H](CCCNC(=N)N)C(=O)c1nc2ccccc2s1) [H-WRLR(SEQ ID NO: 9)-Kbt]
Reply: 9.92

Ask: Can you share its pKi? I mean this binder: H-Trp-Leu-Arg-kbt [H-WLR-kbt]
Reply: 8.82
